From: patent US20170056345A1

- test-target: UniProtKB A1KJR2
- Sequence (A1KJR2 whole entry, looked up): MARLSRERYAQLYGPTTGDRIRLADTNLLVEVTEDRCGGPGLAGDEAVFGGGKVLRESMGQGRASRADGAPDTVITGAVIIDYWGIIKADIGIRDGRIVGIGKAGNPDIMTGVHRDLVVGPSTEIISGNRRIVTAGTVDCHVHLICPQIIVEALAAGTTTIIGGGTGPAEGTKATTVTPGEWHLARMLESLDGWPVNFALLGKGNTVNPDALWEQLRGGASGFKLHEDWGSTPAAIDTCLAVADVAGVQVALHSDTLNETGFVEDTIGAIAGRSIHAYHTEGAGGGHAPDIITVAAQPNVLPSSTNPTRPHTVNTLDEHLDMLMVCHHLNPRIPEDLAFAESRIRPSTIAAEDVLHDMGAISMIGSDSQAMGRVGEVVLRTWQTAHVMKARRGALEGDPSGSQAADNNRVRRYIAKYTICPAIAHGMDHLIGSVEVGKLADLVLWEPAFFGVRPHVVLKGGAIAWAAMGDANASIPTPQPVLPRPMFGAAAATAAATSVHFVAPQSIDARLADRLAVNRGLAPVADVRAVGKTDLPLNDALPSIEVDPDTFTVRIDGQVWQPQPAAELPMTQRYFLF
measured-attribute: IC50

q: Recorded IC50 for CC(=O)NO [acetohydroxamic acid] with UniProtKB A1KJR2, please?
a: 100 to 200 µM
